compounds and their reported zone of inhibition at 0.2 µg/disc
# Tested on: CV-1 cells
# MEASUREMENT NOTES: Cytotoxic activity vs. CV-1 cells (disk zones of inhibition)
# Format: cell-based
# CONDITION INFO: Cercopithecidae; 200 ng/6.35-mm disk; read-out: Zones of Inhibition
Numeric answer only, unit mm assumed.

Sample records with zone of inhibition at 0.2 µg/disc:
SMILES ENTRY	OBSERVED RESULT
COc1cc2c(cc1O)CCN[C@]21CS[C@@H]2c3c(OC(C)=O)c(C)c4c(c3[C@H](COC1=O)N1[C@@H]2[C@@H]2N[C@@H](Cc3cc(C)c(OC)c(O)c32)[C@@H]1O)OCO4	10
COc1cc2c(cc1OC(C)=O)CCN[C@]21CS[C@@H]2c3c(OC(C)=O)c(C)c4c(c3[C@H](COC1=O)N1[C@@H]2[C@H]2c3c(cc(C)c(OC)c3O)C[C@@H]([C@@H]1O)N2C)OCO4	22
COc1cc2c(cc1O)CCN[C@]21CS[C@@H]2c3c(OC(C)=O)c(C)c4c(c3[C@H](COC1=O)N1[C@@H]2[C@H]2c3c(cc(C)c(OC)c3O)C[C@@H]([C@@H]1C#N)N2C)OCO4	16
COc1cc2c(cc1OC(=O)c1ccc(Br)cc1)CCN[C@]21CS[C@@H]2c3c(OC(C)=O)c(C)c4c(c3[C@H](COC1=O)N1[C@@H]2[C@H]2c3c(cc(C)c(OC)c3O)C[C@@H]([C@@H]1O)N2C)OCO4	10

Let's switch to this compound now.
compound COc1cc2c(cc1O)CCN[C@]21CS[C@@H]2c3c(OC(C)=O)c(C)c4c(c3[C@H](COC1=O)N1[C@@H]2[C@H]2c3c(cc(C)c(OC)c3O)C[C@@H]([C@@H]1O)N2C)OCO4 , zone of inhibition at 0.2 µg/disc observed: 20
